- Test Target: KRAS G13C (Homo sapiens, UniProt P01116+P62937, G13C)
- Assay Notes: Ras-Raf disruption / FRET / MOA assay (BRAF RBD)
- Type: biochemical
- Condition Info: Ras-Raf disruption, with Cyclophilin A; read-out: KRAS G13C FRET data IC50
- Sequence (P01116 1-169 isoform P01116-2 G13C limits assumed): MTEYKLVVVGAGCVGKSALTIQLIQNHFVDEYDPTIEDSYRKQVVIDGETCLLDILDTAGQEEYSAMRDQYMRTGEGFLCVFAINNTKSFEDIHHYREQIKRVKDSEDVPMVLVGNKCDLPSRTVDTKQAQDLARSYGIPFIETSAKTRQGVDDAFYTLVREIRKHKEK
- Sequence (P62937 whole entry): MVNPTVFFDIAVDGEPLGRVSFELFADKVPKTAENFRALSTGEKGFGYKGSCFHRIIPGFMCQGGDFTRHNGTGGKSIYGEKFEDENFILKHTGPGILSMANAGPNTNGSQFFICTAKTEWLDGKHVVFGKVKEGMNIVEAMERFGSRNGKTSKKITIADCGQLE
Reported IC50 by item:
Reported Property: IC50

CCn1c(-c2cccnc2[C@H](C)OC)c2c3cc(ccc31)-c1csc(n1)C[C@H](NC(=O)[C@H](C(C)C)N(C)C(=O)N(C)[C@H]1CCN(C(=O)[C@H]3CN3)C1)C(=O)N1CCC[C@H](N1)C(=O)OCC(C)(C)C2 (atropisomer, axis not shown) ... 0.1 to 1 µM
CCn1c(-c2cccnc2[C@H](C)OC)c2c3cc(ccc31)-c1cc(O)cc(c1)C[C@H](NC(=O)[C@@H](COC1CN(C(=O)[C@H]3CN3)C1)C(C)C)C(=O)N1CCC[C@H](N1)C(=O)OCC(C)(C)C2 ... 0.1 to 1 µM
CCn1c(-c2cccnc2[C@H](C)OC)c2c3cc(ccc31)-c1csc(n1)C[C@H](NC(=O)[C@H](C(C)C)N(C)C(=O)N1CCN(C(=O)[C@@H]3CN3)[C@H](C)C1)C(=O)N1CCC[C@H](N1)C(=O)OCC(C)(C)C2 ... 0.1 to 1 µM
CCn1c(-c2cccnc2[C@H](C)OC)c2c3cc(ccc31)-c1cc(O)cc(c1)C[C@H](NC(=O)[C@H](C1CCCC1)N(C)C(=O)[C@H]1CCN(C[C@H]3CN3)C1=O)C(=O)N1CCC[C@H](N1)C(=O)OCC(C)(C)C2 ... 0.01 to 0.1 µM

* * *

- Test Target: KRAS G12S (Homo sapiens, UniProt P01116+P62937, G12S)
- Sequence (P01116 1-169 isoform P01116-2 G12S limits assumed, one chain of several): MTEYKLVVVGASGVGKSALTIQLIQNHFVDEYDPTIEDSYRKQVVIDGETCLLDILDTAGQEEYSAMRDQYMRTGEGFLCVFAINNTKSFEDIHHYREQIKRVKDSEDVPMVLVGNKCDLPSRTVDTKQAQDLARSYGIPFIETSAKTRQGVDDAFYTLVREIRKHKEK
- Assay Notes: Disruption of BRAF RBD interaction with Ras (FRET / MOA assay, with Cyclophilin A)
- Assay type: biochemical
- Condition Info: read-out: KRAS G12S FRET data, IC50
- Excerpt: This protocol may also be executed substituting other Ras proteins or nucleotides. The purpose of this biochemical assay was to measure the ability of test compounds to facilitate ternary complex formation between a nucleotide-loaded K-Ras isoform and Cyclophilin A; the resulting ternary complex disrupts binding to a BRAF^RBD construct, inhibiting K-Ras signaling through a RAF effector. Data is reported as IC50 values. […]
Reported IC50 by item:
Reported Property: IC50

CCn1c(-c2cccnc2[C@H](C)OC)c2c3cc(ccc31)-c1csc(n1)C[C@H](NC(=O)c1ccccn1)C(=O)N1CCC[C@H](N1)C(=O)OCC(C)(C)C2 ... 1000 to 10000 nM
C=CC(=O)N1CC[C@H](C(=O)N(C)[C@H](C(=O)N[C@H]2Cc3cc(O)cc(c3)-c3ccc4c(c3)c(c(-c3ccncc3)n4C(C)(C)C#N)CC(C)(C)COC(=O)[C@@H]3CCCN(N3)C2=O)C(C)C)C1 ... 100 to 1000 nM
CCn1c(-c2cccnc2[C@H](C)OC)c2c3cc(ccc31)-c1csc(n1)C[C@H](NC(=O)[C@H](C(C)C)N(C)C(=O)N1CC(C(C)(C)OC)C1)C(=O)N1CCC[C@H](N1)C(=O)OCC(C)(C)C2 (atropisomer, axis not shown) ... 100 to 1000 nM
C=CC(=O)N1CCO[C@H]2CN(C(=O)N(C)[C@H](C(=O)N[C@H]3CN4CCC=C(C4)c4ccc5c(c4)c(c(-c4cccnc4[C@H](C)OC)n5CC)CC(C)(C)COC(=O)[C@@H]4CCCN(N4)C3=O)C(C)C)C[C@H]21 ... 1000 to 10000 nM
CCn1c(-c2cc(N3CCN(C)CC3)cnc2[C@H](C)OC)c2c3cc(ccc31)-c1csc(n1)C[C@H](NC(=O)[C@H](C(C)C)N(C)C(=O)[C@H]1CCNC1=O)C(=O)N1CCC[C@H](N1)C(=O)OCC(C)(C)C2 (single isomer, unassigned) ... 1000 to 10000 nM
C=CC(=O)N1CCO[C@H]2CN(C(=O)N(C)[C@H](C(=O)N[C@H]3Cc4cccc(n4)-c4ccc5c(c4)c(c(-c4cccnc4[C@H](C)OC)n5CC(F)(F)F)CC(C)(C)COC(=O)C4CCCN(N4)C3=O)C(C)C)C[C@H]21 (some centres unmarked) ... 1000 to 10000 nM
CCn1c(-c2cc(N3CCN(C)CC3)cnc2[C@H](C)OC)c2c3cc(ccc31)-c1cc(O)cc(c1)C[C@H](NC(=O)[C@H](C(C)C)N(C)C(=O)[C@@H]1OCC[C@@H]1c1ccccc1)C(=O)N1CCC[C@H](N1)C(=O)OCC(C)(C)C2 (atropisomer, axis not shown) ... < 10 nM
CCn1c(-c2cccnc2[C@H](C)OC)c2c3cc(ccc31)-c1csc(n1)C[C@H](NC(=O)[C@H](C(C)C)N(C)C(=O)N1CC[C@H]3CN(C)C[C@H]31)C(=O)N1CCC[C@H](N1)C(=O)OCC(C)(C)C2 (atropisomer, axis not shown) ... 100 to 1000 nM

* * *

- Test Target: KRAS G13C (Homo sapiens, UniProt P01116+P62937, G13C)
- Assay Notes: Disruption of BRAF RBD interaction with Ras (FRET / MOA assay, with Cyclophilin A)
- Format: biochemical
- Condition Info: read-out: KRAS G13C FRET data, IC50
- Sequence (P01116 1-169 isoform P01116-2 G13C): as the sequence (P01116 1-169 isoform P01116-2 G13C limits assumed) above
- Sequence (P62937 whole entry): as the sequence (P62937 whole entry) above
Reported Property: IC50

CCn1c(-c2cccnc2[C@H](C)OC)c2c3cc(ccc31)-c1csc(n1)C[C@H](NC(=O)[C@H](C(C)C)N(C)C(=O)N1CCC13CCOCC3)C(=O)N1CCC[C@H](N1)C(=O)OCC(C)(C)C2 (atropisomer, axis not shown) ... 100 to 1000 nM
CCn1c(-c2cnccc2COC)c2c3cc(ccc31)-c1cc(O)cc(c1)C[C@H](NC(=O)[C@H](C(C)C)N(C)CC(F)(F)F)C(=O)N1CCC[C@H](N1)C(=O)OCC(C)(C)C2 ... 1000 to 10000 nM
CCn1c(-c2cccnc2[C@H](C)OC)c2c3cc(ccc31)-c1cc(O)cc(c1)C[C@H](NC(=O)[C@H](C(C)C)N(C)C(=O)[C@H]1CCN[C@H]1C)C(=O)N1CCC[C@H](N1)C(=O)OCC(C)(C)C2 ... 10 to 100 nM
CCn1c(-c2cccnc2[C@H](C)OC)c2c3cc(ccc31)-c1csc(n1)C[C@H](NC(=O)[C@H](C(C)C)N(C)C(=O)N1CC3(CN(C)CCO3)C1)C(=O)N1CCC[C@H](N1)C(=O)OCC(C)(C)C2 ... 1000 to 10000 nM
CCn1c(-c2cnccc2COC)c2c3cc(ccc31)-c1cc(O)cc(c1)C[C@H](NC(=O)[C@H](C(C)C)N(C)C(=O)[C@H]1CCN(S(=O)(=O)N3CC(N)C3)C1)C(=O)N1CCC[C@H](N1)C(=O)OCC(C)(C)C2 ... 100 to 1000 nM
CCN(CC)C1CN(C(=O)N(C)[C@H](C(=O)N[C@H]2Cc3nc(cs3)-c3ccc4c(c3)c(c(-c3cccnc3[C@H](C)OC)n4CC)CC(C)(C)COC(=O)[C@@H]3CCCN(N3)C2=O)C(C)C)C1 ... 100 to 1000 nM
CCn1c(-c2cc(N3CCN(C)CC3)cnc2[C@H](C)OC)c2c3cc(ccc31)-c1csc(n1)C[C@H](NC(=O)[C@H](C(C)C)N(C)C(=O)N1C[C@@H](C)N(C)C[C@H]1C)C(=O)N1CCC[C@H](N1)C(=O)OCC(C)(C)C2 (atropisomer, axis not shown) ... 100 to 1000 nM
CCn1c(-c2cccnc2[C@H](C)OC)c2c3cc(ccc31)-c1cc(O)cc(c1)C[C@H](NC(=O)[C@@H](NC(C)=O)C(C)(C)OC)C(=O)N1CCC[C@H](N1)C(=O)OCC(C)(C)C2 (racemic) ... 1000 to 10000 nM
CCn1c(-c2cccnc2[C@H](C)OC)c2c3cc(ccc31)-c1cc(O)cc(c1)C[C@H](NC(=O)[C@H](C(C)C)N(C)C(=O)C13CNCC1C3)C(=O)N1CCC[C@H](N1)C(=O)OCC(C)(C)C2 (some centres unmarked) ... 10 to 100 nM
CCn1c(-c2cccnc2[C@H](C)OC)c2c3cc(ccc31)-c1cc(O)cc(c1)C[C@H](NC(=O)[C@H](C(C)C)N(C)C(=O)[C@H]1CCN(C(=O)C(C)(C)N(C)C)C1)C(=O)N1CCC[C@H](N1)C(=O)OCC(C)(C)C2 (atropisomer, axis not shown) ... 10 to 100 nM
CCn1c(-c2cc(C3CCN(C)CC3)cnc2[C@H](C)OC)c2c3cc(ccc31)-c1csc(n1)C[C@H](NC(=O)[C@H](C(C)C)N(C)C(=O)N(C)C)C(=O)N1CCC[C@H](N1)C(=O)OCC(C)(C)C2 (atropisomer, axis not shown) ... 100 to 1000 nM
CCn1c(-c2cccnc2[C@H](C)OC)c2c3cc(ccc31)-c1cc(O)cc(c1)C[C@H](NC(=O)[C@H](C(C)C)N(C)C(=O)C1NCCC1C(C)C)C(=O)N1CCC[C@H](N1)C(=O)OCC(C)(C)C2 (some centres unmarked) ... 10 to 100 nM
CCn1c(-c2cccnc2[C@H](C)OC)c2c3cc(ccc31)-c1cc(O)cc(c1)C[C@H](NC(=O)[C@H](C(C)C)N(C)C(=O)[C@@H]1CNC[C@@H]1C)C(=O)N1CCC[C@H](N1)C(=O)OCC(C)(C)C2 ... 10 to 100 nM
CCn1c(-c2cccnc2[C@H](C)OC)c2c3cc(ccc31)-c1cc(O)cc(c1)C[C@H](NC(=O)[C@H](C(C)C)N(C)C(=O)[C@H]1CCCNC1)C(=O)N1CCC[C@H](N1)C(=O)OCC(C)(C)C2 ... 10 to 100 nM
CCn1c(-c2cnccc2COC)c2c3cc(ccc31)-c1cc(O)cc(c1)C[C@H](NC(=O)[C@H](C(C)C)N(C)C(=O)[C@@H]1CCCO1)C(=O)N1CCC[C@H](N1)C(=O)OCC(C)(C)C2 ... 100 to 1000 nM
CCn1c(-c2cccnc2[C@H](C)OC)c2c3cc(ccc31)-c1csc(n1)C[C@H](NC(=O)[C@H](C(C)C)N(C)C(=O)N1CCC3(CC1)CN(C)CCO3)C(=O)N1CCC[C@H](N1)C(=O)OCC(C)(C)C2 ... 100 to 1000 nM
CCn1c(-c2cccnc2[C@H](C)OC)c2c3cc(ccc31)-c1csc(n1)C[C@H](NC(=O)[C@H](C(C)C)N(C)C(=O)N1CC[C@H]1C(=O)NC)C(=O)N1CC(C)C[C@H](N1)C(=O)OCC(C)(C)C2 (some centres unmarked) ... 1000 to 10000 nM

// provenance: patent US20230233569A1
